Please provide measured IC50 for the entries that follow.
Assay: Cytotoxicity assay in PBM cells
Type: cell-based, human
Settings: human, human PBM cells, Table 1, read-out: Cytotoxicity in different cells (IC50, μM) PBM

{"SMI": "O=C(Nc1nc(=O)n([C@H]2CC[C@@H](CO)O2)cc1F)c1ccc(Br)cc1", "IC50": "> 100 µM"}

I would be grateful if you could provide IC50 for each of the following entries.
1. O=C(Nc1nc(=O)n([C@H]2CC[C@@H](CO)O2)cc1F)c1cccc(Cl)c1
2. Cc1cccc(C(=O)Nc2nc(=O)n([C@H]3CC[C@@H](CO)O3)cc2F)c1
3. O=C(Nc1nc(=O)n([C@H]2CC[C@@H](CO)O2)cc1F)c1cccc(Br)c1

1: > 100 µM; 2: 8.4 µM; 3: > 100 µM

// batch mode: one IC50 value per listed entry
1. Cc1ccc(C(=O)Nc2nc(=O)n([C@H]3CC[C@@H](CO)O3)cc2F)cc1
2. O=C(Nc1nc(=O)n([C@H]2CC[C@@H](CO)O2)cc1F)c1cccs1
3. O=C(Nc1nc(=O)n([C@H]2CC[C@@H](CO)O2)cc1F)c1cc2ccccc2s1
4. O=C(Nc1nc(=O)n([C@H]2CC[C@@H](CO)O2)cc1F)c1ccc(Cl)cc1

["> 100 µM", "19.4 µM", "23.5 µM", "> 100 µM"]

###

Tested on: HIV-1RF
Test: Anti-HIV (in MT-2 cells) assay, viral RNA accumulation
Assay type: cell-based
Conditions: Table 2; EC90; MT-2 cells; read-out: Anti-HIV-1 activity in different cells (EC90, μM) MT-2
I'd appreciate it if you could supply EC90 values for the items below.
Answers are plain numbers, in µM.

Below are worked cases with known answers.
{"COMPOUND": "CCc1ccc(C(=O)Nc2nc(=O)n([C@H]3C=C[C@@H](CO)O3)cc2F)cc1", "UNIT TEXT": "µM", "VALUE": 0.24}
{"COMPOUND": "O=C(Nc1nc(=O)n([C@H]2C=C[C@@H](CO)O2)cc1F)c1cccc(F)c1", "UNIT TEXT": "µM", "VALUE": 1}
{"COMPOUND": "COc1cccc(C(=O)Nc2nc(=O)n([C@H]3C=C[C@@H](CO)O3)cc2F)c1", "UNIT TEXT": "µM", "VALUE": 0.34}
{"COMPOUND": "CC(C)(C)c1ccc(C(=O)Nc2nc(=O)n([C@H]3C=C[C@@H](CO)O3)cc2F)cc1", "UNIT TEXT": "µM", "VALUE": 0.13}
{"COMPOUND": "O=C(Nc1nc(=O)n([C@H]2C=C[C@@H](CO)O2)cc1F)c1cc2ccccc2s1", "UNIT TEXT": "µM", "VALUE": 0.3}

Kindly give each listed record's EC90.
1. O=C(Nc1nc(=O)n([C@H]2C=C[C@@H](CO)O2)cc1F)c1cccs1
2. CCCC(=O)Nc1nc(=O)n([C@H]2C=C[C@@H](CO)O2)cc1F
3. CCCCCCC(=O)Nc1nc(=O)n(C2C=CC(CO)O2)cc1F (stereo not drawn)
4. Nc1nc(=O)n([C@H]2C=C[C@@H](CO)O2)cc1F [D-D4FC, reference compound]
5. O=C(Nc1nc(=O)n([C@H]2C=C[C@@H](CO)O2)cc1F)c1ccc([N+](=O)[O-])cc1
6. O=C(Nc1nc(=O)n([C@H]2C=C[C@@H](CO)O2)cc1F)c1cccc(Br)c1
7. O=C(Nc1nc(=O)n([C@H]2C=C[C@@H](CO)O2)cc1F)c1cccc(Cl)c1

1.5
2.4
0.23
1.19
0.29
1
2
